These entries and their values trace back to PubChem BioAssay (NCATS).

subject-of-test: Nicotinamide N-methyltransferase (Homo sapiens) (UniProt P40261)
Sequence (P40261 whole entry, looked up): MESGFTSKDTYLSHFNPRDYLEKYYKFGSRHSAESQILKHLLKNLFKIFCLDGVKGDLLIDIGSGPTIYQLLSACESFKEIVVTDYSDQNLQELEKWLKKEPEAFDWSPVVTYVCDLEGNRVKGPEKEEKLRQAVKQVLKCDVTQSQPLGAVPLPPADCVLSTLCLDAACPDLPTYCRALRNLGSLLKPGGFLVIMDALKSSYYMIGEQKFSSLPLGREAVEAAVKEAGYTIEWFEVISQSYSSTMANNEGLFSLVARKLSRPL
run-description: Confirmatory Screen for Target Class Profiling of Small Molecule Inhibitors of Methyltransferases (AID 1745852)
setup-conditions: MTase-Glo luminescence, SAH detection, recombinant enzyme; measured here: NNMT max response; stronger effect = lower value

molecule	activity / %
O=C(CCc1nnc2n(CCc3ccccc3)c(=O)c3ccccc3n12)N1CCN(c2ccccc2)CC1	-41
CCN(CC)CCCNC(=O)CCc1nnc2n(Cc3ccc(F)cc3)c(=O)c3ccccc3n12	-4.75
O=C(c1ccc(C(F)(F)F)cc1)N1CCCC(C(=O)N2CCC(c3nc4ccncc4[nH]3)CC2)C1 (stereo not given)	-28.9
COc1cccc(CN2CCCC3(CCN(c4cc(C)nc(N)n4)C3)C2)c1OC (stereo not given)	-4.87
CCCS(=O)(=O)N1CCCC(Cn2c(C)nc3cccnc32)C1 (stereo not given)	7.76

---

subject-of-test: Rap guanine nucleotide exchange factor 4 (Homo sapiens)
run-description: Confirmatory qHTS for antagonist of cAMP-regulated guanine nucleotide exchange factor 4 (EPAC2) (AID 1645885); further: nearly all actives have a fitted effect of over 25% in size
setup-conditions: EPAC2 Rap1B-BODIPY-GDP exchange fluorescence, biochemical; series mostly up to 12.7 µM
Results filed as inconclusive are left out. Active and inactive are the calls of the source. Calls come from the whole dose curve; as a rule, active = well fitted inhibition curve with a large enough effect; inconclusive = small, poorly fitted or top-dose-only effect; inactive = no such curve, though single readings can be large or run the other way.
Classes used: active, inactive

molecule	subject-of-test	assigned-class
O=C(Cn1c(=O)c2ccccc2n(CC(=O)Nc2ccc(Cl)cc2)c1=O)NCCc1ccccc1	Rap guanine nucleotide exchange factor 4 (Homo sapiens)	inactive
O=S(=O)(Nc1cc2nc3ccccc3nc2n1Cc1ccccc1)c1ccc(Cl)cc1	Rap guanine nucleotide exchange factor 4 (Homo sapiens)	active
CC(C)(C)Cc1c(-c2ccco2)nc2ccc(Cl)cn12	Rap guanine nucleotide exchange factor 4 (Homo sapiens)	inactive
OC(c1ccc2ccccc2n1)c1c(Cl)cccc1Cl (stereo unspecified)	Rap guanine nucleotide exchange factor 4 (Homo sapiens)	inactive
CC(=O)NC(c1cccc(F)c1)c1nc(-c2ccccc2)cs1 (stereo unspecified)	Rap guanine nucleotide exchange factor 4 (Homo sapiens)	inactive
CC(C)=CCc1c(O)cc(O)c2c1O[C@H](c1ccccc1)CC2=O	Rap guanine nucleotide exchange factor 4 (Homo sapiens)	active
CN(C)c1ncc2ncc(=O)n(Cc3cccs3)c2n1	Rap guanine nucleotide exchange factor 4 (Homo sapiens)	active
O=c1[nH]c(C2CCN(S(=O)(=O)c3ccccc3F)CC2)nc2c1nnn2Cc1ccc(F)cc1	Rap guanine nucleotide exchange factor 4 (Homo sapiens)	inactive
CC(C)C[C@H]1COCCS(=O)(=O)N1Cc1cccc(C(F)(F)F)c1	Rap guanine nucleotide exchange factor 4 (Homo sapiens)	inactive
Cc1ccc(C)c(Nc2cc(C)nc(-c3ccccc3O)n2)c1	Rap guanine nucleotide exchange factor 4 (Homo sapiens)	inactive
COc1ccc2nc3oc(C(=O)Nc4cccc(C(F)(F)F)c4)cc3cc2c1	Rap guanine nucleotide exchange factor 4 (Homo sapiens)	inactive

---

subject-of-test: Cytochrome P450 3A4 (Homo sapiens)
run-description: qHTS for inhibitors of CYP3A4 against the NCATS DSHEA and TCM libraries (AID 1919971)
setup-conditions: recombinant CYP3A4 enzyme activity, luminescence qHTS; series mostly up to 34.1 µM
Inconclusive results are not listed. The source made the active and inactive calls. Calls follow the shape of the dose curve; as a rule, active = well fitted inhibition curve with a large enough effect; inconclusive = small, poorly fitted or top-dose-only effect; inactive = no such curve, though single readings can be large or run the other way.
Classes used: Y (active), N (inactive)

compound	assigned-class
CCCCCCCCCC=O	N
CC(=O)OC/C=C/c1ccccc1	N
CC(=O)O[C@H]1[C@H](O[C@H]2CC[C@]34C[C@]35CC[C@]3(C)[C@@H]([C@@]6(C)CC[C@@H](C(C)(C)O)O6)[C@@H](O)C[C@@]3(C)[C@@H]5C[C@H](O[C@@H]3O[C@H](CO)[C@@H](O)[C@H](O)[C@H]3O)[C@H]4C2(C)C)OC[C@@H](O)[C@@H]1O	N
CC(C)c1ccc(C=O)cc1	N
COc1ccc(C(=O)O)cc1	N
CC1=C2[C@H](/C=C(\C)C(=O)O)CC[C@@H](C)[C@H]2CC1	N
CC1=CCC(O)(C(C)C)CC1 (centres undefined)	N
C=C/C(C)=C/C/C=C(\C)CCC=C(C)C	Y
CCCCCCC/C=C/C(=O)CCc1ccc(O)c(OC)c1	Y
C=C1CC[C@H](O)C/C1=C\C=C1/CCC[C@]2(C)[C@@H]([C@H](C)CC[C@H](C)C(C)C)CC[C@@H]12	Y
CCCCC/C=C/C/C=C/CCCCCCCC(=O)O	Y
OCCc1ccc(O)cc1	N
C=C1C[C@@]23CC[C@H]4[C@@](C)(CCC[C@@]4(C)C(=O)O[C@@H]4O[C@H](CO)[C@@H](O)[C@H](O)[C@H]4O[C@@H]4O[C@H](CO)[C@@H](O)[C@H](O)[C@H]4O)[C@@H]2CC[C@]1(O[C@@H]1O[C@H](CO)[C@@H](O)[C@H](O)[C@H]1O[C@@H]1O[C@H](CO)[C@@H](O)[C@H](O)[C@H]1O)C3	N
Oc1cc(O)c2c(c1)O[C@@H](c1cc(O)c(O)c(O)c1)[C@H](O)C2	N
CC1(C)C2CCC1(C)C(O)C2 (centres undefined)	N
O=C(O)CC(O)(C(=O)O)C(O)C(=O)O (centres undefined)	N
CC(C)(O)[C@@H]1CC[C@](C)([C@@H]2[C@H](O)C[C@]3(C)C4C[C@@H](O[C@H]5O[C@@H](CO)[C@H](O)[C@@H](O)[C@@H]5O)C5C(C)(C)[C@H](O[C@H]6OC[C@H](O)[C@@H](O)[C@@H]6O)CC[C@]56CC46CC[C@@]23C)O1 (some centres undefined)	N
COc1ccccc1/C=C/C=O	N
O=C(O)c1ccccc1	N

---

subject-of-test: Nicotinamide N-methyltransferase (Homo sapiens)
run-description: Confirmatory Screen for Target Class Profiling of Small Molecule Inhibitors of Methyltransferases (AID 1745852)
setup-conditions: MTase-Glo luminescence, SAH detection, recombinant enzyme; measured here: NNMT max response; stronger effect = lower value
Item-by-item account of activity
measurement-name: activity

compound	measurement-name	reported-value
O=C(NCc1cccc(Cl)c1)c1sc(=S)n2c1[nH]c(=O)c1cc3c(cc12)OCO3	activity	-63.2%
Oc1ccc(NCCN2CCCC2)cc1	activity	-12.3%
Cc1c(OCc2ccc(C(=O)O)o2)ccc2c(-c3ccccc3)cc(=O)oc12	activity	-34.7%
CN(C)CC1(O)CCC2(CCN(C(=O)c3cccn3C)CC2)CC1	activity	3.1%
OC1(Cn2ccnc2)CCN(Cc2ccccc2Cn2cccn2)CC1	activity	4.14%
CC1CCCCN1CCCNC(=O)Cn1ccc2cc(S(=O)(=O)N3CCCCC3)ccc21 (stereo unspecified)	activity	0.0396%
CCCC1c2cccn2CCN1C(=O)Nc1ccc(F)cc1F (stereo unspecified)	activity	-4.75%
Cn1c(COc2cccc(CN3CCCC3)c2Cl)nnc1C1CC(N)C1 (stereo unspecified)	activity	-2.09%
CC1(C(=O)NC2CCCCCC2)Cn2c(cc3occc32)C(=O)N1Cc1ccc2c(c1)OCO2 (stereo unspecified)	activity	-18%
O=C(O)c1ccc2c(c1)C1C=CCC1C(c1cccc(F)c1)N2 (stereo unspecified)	activity	0.825%
O=[S+]1([O-])NC2(CCCN(Cc3c(F)cccc3Cl)C2)COc2ccccc21 (stereo unspecified)	activity	-5.33%
CCOc1c(CN(C)C(=O)Cn2cccc(OC)c2=O)cccc1OC	activity	-3.91%
CCOC(=O)c1ccc(NC(=O)Cn2c(=O)oc3cc(S(=O)(=O)N4CCCC4)ccc32)cc1	activity	-9.52%
COc1cccc(Nc2cc3c(cn2)CN(Cc2cccnc2)CCN3)c1	activity	-7.33%
CNc1cc(C2CC(NC(=O)COc3ccc(Cl)cc3C)C2)nc(N)n1 (stereo unspecified)	activity	-5.16%
CCN(CC)CCNC(=O)CCc1nnc2n(Cc3ccc(Cl)cc3)c(=O)c3ccccc3n12	activity	-12.4%
COc1ncccc1-c1cc2c(ccn2CC2CCN([S+](C)(=O)[O-])CC2)c(N2CCOCC2)n1	activity	-94.7%
COc1ccc(CCN2C(=O)c3ccc(-c4ccco4)n3CC2(C)C(=O)NC2CCCC2)cc1OC (stereo unspecified)	activity	-65.9%
CC(C)Cn1c(=O)c2ccccc2n2c(CCC(=O)N3CCN(c4ccccc4F)CC3)nnc12	activity	-58.2%
O=C(CCCc1nnc2n3nc(-c4ccccc4)nc3c3ccccc3n12)NCCN1CCCC1	activity	-3.84%
COc1ccc(-c2nnn3c2nc(N2CCOCC2)c2ccccc23)cc1	activity	-27.8%

---

subject-of-test: Rap guanine nucleotide exchange factor 3 (Homo sapiens) (UniProt O95398)
run-description: Counterscreen qHTS for agonist of cAMP-regulated guanine nucleotide exchange factor 3 (EPAC1) (AID 1645889); further: potency means the concentration at half of the fitted maximal effect; nearly all actives have a fitted effect of over 40% in size
setup-conditions: EPAC1 Rap1B-BODIPY-GDP exchange, fluorescence; series mostly up to 154 µM
Records with an inconclusive call do not appear. Calls of active or inactive are those of the source. Calls come from the whole dose curve; as a rule, active = well fitted activation curve with a large enough effect; inconclusive = small, poorly fitted or top-dose-only effect, or another doubt; inactive = no such curve, though single readings can be large or run the other way.
Item-by-item account of Potency
measurement-name: Potency

chemical-structure	reported-value
O=C1C(=Cc2cn(-c3ccccc3)nc2-c2ccc(OCc3ccc(Cl)cc3)cc2)SC(=S)N1CCS(=O)(=O)O	50.1 µM (active)
CC(=O)[C@@]1(O)Cc2c(O)c3c(c(O)c2[C@H](O[C@H]2C[C@H](N)[C@H](O)[C@H](C)O2)C1)C(=O)c1ccccc1C3=O	12.6 µM (active)
COC(=O)c1c(SC)nc2ccccc2c1OCc1ccc(C)cc1	17.8 µM (active)
N=C1/C(=C\c2coc3ccc(O)cc3c2=O)C(=O)N=C2SC=CN12	44.7 µM (active)
O=C1CCN2C=Nc3cccc4ccc1c2c34	11.2 µM (active)
CCNc1ccc2noc3c2c1C(=O)c1ccccc1-3	22.4 µM (active)
COc1cccc(C(=O)c2sc3nc(-c4ccccc4)cc(C(F)(F)F)c3c2N)c1	56.2 µM (active)
CN1/C(=C\C=C2/C(=O)Oc3ccccc3C2=O)C(C)(C)c2ccccc21	20 µM (active)
O=C1CCNc2ccc(-c3ccccc3)cc21	56.2 µM (active)
CC(=O)Nc1sc2c(c1-c1nc3ccccc3s1)CN(C(C)C)CC2	10 µM (active)
